Tested on: HNSC
Test: growth inhibition (% activity, log2 RLU normalised to DMSO / staurosporine); higher = more growth inhibition
Details: 33 µM
Measured growth inhibition, listed per entry.
parameter: growth inhibition (%)

[[record]]
compound = "CCCc1nc(C)c2c(=O)nc(-c3cc(S(=O)(=O)N4CCN(CC)CC4)ccc3OCC)[nH]n12"
study_system = "HNSC"
parameter = "growth inhibition"
unit_descriptor = "%"
endpoint_value = -2.13

[[record]]
compound = "OC1(c2ccc(Cl)c(C(F)(F)F)c2)CCN(CCCC(c2ccc(F)cc2)c2ccc(F)cc2)CC1"
study_system = "HNSC"
parameter = "growth inhibition"
unit_descriptor = "%"
endpoint_value = 71.6

[[record]]
compound = "COCCOC(=O)C1=C(C)NC(C)=C(C(=O)OC(C)C)C1c1cccc([N+](=O)[O-])c1 (stereo unspecified)"
study_system = "HNSC"
parameter = "growth inhibition"
unit_descriptor = "%"
endpoint_value = 2.29

[[record]]
compound = "S=c1[nH]cnc2nc[nH]c12"
study_system = "HNSC"
parameter = "growth inhibition"
unit_descriptor = "%"
endpoint_value = 58.1

[[record]]
compound = "CCOc1nc2cccc(C(=O)O)c2n1Cc1ccc(-c2ccccc2-c2nnn[nH]2)cc1"
study_system = "HNSC"
parameter = "growth inhibition"
unit_descriptor = "%"
endpoint_value = 1.93

[[record]]
compound = "O=c1[nH]c(=O)n([C@H]2C[C@H](O)[C@@H](CO)O2)cc1F"
study_system = "HNSC"
parameter = "growth inhibition"
unit_descriptor = "%"
endpoint_value = 67.3

[[record]]
compound = "CCOC(=O)C1=C(C)NC(C)=C(C(=O)OC)C1c1cccc([N+](=O)[O-])c1 (stereo unspecified)"
study_system = "HNSC"
parameter = "growth inhibition"
unit_descriptor = "%"
endpoint_value = 37.3

[[record]]
compound = "C[C@H]1NC(=O)NC1=O"
study_system = "HNSC"
parameter = "growth inhibition"
unit_descriptor = "%"
endpoint_value = -0.248

[[record]]
compound = "CC[C@H]1OC(=O)C[C@@H](O)[C@H](C)[C@@H](O[C@@H]2O[C@H](C)[C@@H](O)[C@H](N(C)C)[C@H]2O)[C@@H](CCN2C[C@H](C)C[C@H](C)C2)C[C@@H](C)C(=O)/C=C/C(C)=C/[C@@H]1CO[C@@H]1O[C@H](C)[C@@H](O)[C@@H](OC)[C@H]1OC"
study_system = "HNSC"
parameter = "growth inhibition"
unit_descriptor = "%"
endpoint_value = 3.6

[[record]]
compound = "CCOC(=O)C1=C[C@]2(CC)CCCN3CCc4c(n1c1ccccc41)[C@@H]32"
study_system = "HNSC"
parameter = "growth inhibition"
unit_descriptor = "%"
endpoint_value = 34.5

[[record]]
compound = "CNC(CC(C)C)C(=O)NC1C(=O)NC(CC(N)=O)C(=O)NC2C(=O)NC3C(=O)NC(C(=O)NC(C(=O)O)c4cc(O)cc(O)c4-c4cc3ccc4O)C(O)c3ccc(c(Cl)c3)Oc3cc2cc(c3OC2OC(CO)C(O)C(O)C2OC2CC(C)(N)C(O)C(C)O2)Oc2ccc(cc2Cl)C1O (stereo unspecified)"
study_system = "HNSC"
parameter = "growth inhibition"
unit_descriptor = "%"
endpoint_value = -0.899

[[record]]
compound = "Nc1nccs1"
study_system = "HNSC"
parameter = "growth inhibition"
unit_descriptor = "%"
endpoint_value = 5.02

[[record]]
compound = "CCC[S+]([O-])c1ccc2[nH]c(NC(=O)OC)nc2c1 (stereo unspecified)"
study_system = "HNSC"
parameter = "growth inhibition"
unit_descriptor = "%"
endpoint_value = 3.73

[[record]]
compound = "Clc1ccc(C(Cn2ccnc2)OCc2ccsc2Cl)c(Cl)c1 (stereo unspecified)"
study_system = "HNSC"
parameter = "growth inhibition"
unit_descriptor = "%"
endpoint_value = 4.99

[[record]]
compound = "CN1CCN(c2c(F)cc3c(=O)c(C(=O)O)cn(CCF)c3c2F)CC1"
study_system = "HNSC"
parameter = "growth inhibition"
unit_descriptor = "%"
endpoint_value = 5.69

[[record]]
compound = "CN[C@@H]1[C@H](O)[C@H](NC)[C@H]2O[C@@]3(O)C(=O)C[C@@H](C)O[C@H]3O[C@@H]2[C@H]1O"
study_system = "HNSC"
parameter = "growth inhibition"
unit_descriptor = "%"
endpoint_value = 3.02

[[record]]
compound = "CC(C)C[C@H](NC(=O)[C@H](CCc1ccccc1)NC(=O)CN1CCOCC1)C(=O)N[C@@H](Cc1ccccc1)C(=O)N[C@@H](CC(C)C)C(=O)[C@@]1(C)CO1"
study_system = "HNSC"
parameter = "growth inhibition"
unit_descriptor = "%"
endpoint_value = 56.9

[[record]]
compound = "Cc1ccc2c(Cl)cc(Cl)c(O)c2n1"
study_system = "HNSC"
parameter = "growth inhibition"
unit_descriptor = "%"
endpoint_value = 46

[[record]]
compound = "CC(=O)OCC(=O)NCCCOc1cccc(CN2CCCCC2)c1"
study_system = "HNSC"
parameter = "growth inhibition"
unit_descriptor = "%"
endpoint_value = -4.85

[[record]]
compound = "Cc1cccc(C)c1OCC(=O)N[C@@H](Cc1ccccc1)[C@@H](O)C[C@H](Cc1ccccc1)NC(=O)[C@H](C(C)C)N1CCCNC1=O"
study_system = "HNSC"
parameter = "growth inhibition"
unit_descriptor = "%"
endpoint_value = 0.148

[[record]]
compound = "c1ccc2c(c1)CCCC2C1=NCCN1 (stereo unspecified)"
study_system = "HNSC"
parameter = "growth inhibition"
unit_descriptor = "%"
endpoint_value = 8.78

[[record]]
compound = "O=C(O)c1ccccc1"
study_system = "HNSC"
parameter = "growth inhibition"
unit_descriptor = "%"
endpoint_value = 1.02

[[record]]
compound = "CC(C)(S)[C@@H](N)C(=O)O"
study_system = "HNSC"
parameter = "growth inhibition"
unit_descriptor = "%"
endpoint_value = 45.1

[[record]]
compound = "CC(=O)O[C@]1(C(C)=O)CC[C@H]2[C@@H]3C=C(C)C4=CC(=O)CC[C@]4(C)[C@H]3CC[C@@]21C"
study_system = "HNSC"
parameter = "growth inhibition"
unit_descriptor = "%"
endpoint_value = -2.32

[[record]]
compound = "Oc1ccc(OCc2ccccc2)cc1"
study_system = "HNSC"
parameter = "growth inhibition"
unit_descriptor = "%"
endpoint_value = 10.9

[[record]]
compound = "N=c1nc(N2CCCCC2)cc(N)n1O"
study_system = "HNSC"
parameter = "growth inhibition"
unit_descriptor = "%"
endpoint_value = 1.05


Reference for the values: the supplement of paper PMC8253809
